assay: inhibitors of TNFa-induced NFkB p65 translocation, primary screen, imaging, HUVEC, MLSMR starter and 10KST1 sets (AID 438); settings: HUVEC TNFa-induced p65 nuclear translocation; measured here: nuclei count (cytotoxicity indicator), at 2.08 µM;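 further: compound added about 3h40 before a 20 min TNFalpha stimulation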
cell count overview
Lab note: record the figure alone, no unit after it.

{"Molecule": "CCCNC1=C(C)C(=O)CC1", "cell count": 602}

Challenge: So what's the measured cell count for this one? COC(=O)Cc1c(C)c2ccc(OCC(=O)N3CCOCC3)cc2oc1=O
Response given: 439

Challenge: Now consider O=C(O)COc1ccc(S(=O)(=O)NCCc2ccccc2)cc1 .
Response given: 596

Challenge: Now consider COc1nnnc2c1sc1nc(N3CCOCC3)c3c(c12)CC(C)(C)OC3 .
Response given: 590

----------
experiment: inhibitors of E-selectin induction by TNFa, primary screen, imaging, HUVEC, immunofluorescence, MLSMR starter and 10KST1 sets (AID 487); conditions: HUVEC TNFalpha-induced E-selectin immunofluorescence imaging, at 2 µM; measured here: cell number, toxicity;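 further: 100% = median nuclei count of all wells on the same plate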
Test Readout: nuclei count (%)
Write the number in % without appending the unit.

Examples with answers:
{"Compound": "CC(C)(C)NC(=O)/C=N/O", "Experimental Value": 166}
{"Compound": "COc1cccc(C2=NOC(C(=O)N3CCN(c4ccccc4)CC3)C2)c1OC (stereo not drawn)", "Experimental Value": 99.4}
{"Compound": "O=C(CCCNS(=O)(=O)c1ccccc1)NCc1ccco1", "Experimental Value": 80.8}
{"Compound": "CCN(CC)Cc1cc(C(C)=O)ccc1OCC(C)C", "Experimental Value": 164}
{"Compound": "Cc1ccc(C)c(N2CCN(C(=O)c3cc4ccccn4n3)CC2)c1", "Experimental Value": 118}
{"Compound": "Cc1cc(C)n(-c2ncnc3sc(C)c(C)c23)n1", "Experimental Value": 157}
{"Compound": "Cc1cc(C)n(-c2cc(N3CCOCC3)ncn2)n1", "Experimental Value": 125}
{"Compound": "Cc1cc(C)c2c(C)nn(C3CCCCC3)c2n1", "Experimental Value": 86.7}

Challenge: So what's the measured nuclei count for this one? FC(F)(F)c1cccc(N2CCN(Cc3cccnc3)CC2)c1
Response given: 127

Challenge: Now consider Cc1ccc2cc3cc(C(=O)N4CC(C)CC(C)C4)oc3nc2c1 (stereo not drawn) .
Response given: 110

Challenge: Now consider CCOC(=O)N1CCN(C(=O)CSCC(=O)Nc2nc(-c3ccc(OC)cc3)cs2)CC1 .
Response given: 91.3

Challenge: Now consider Cc1ccc(C(=O)NCCCNCCCNC(=O)c2ccc(C)nc2)cn1 .
Response given: 151

Challenge: Now consider Cc1ccc2cc(CNC(C)C)c(=O)[nH]c2c1 .
Response given: 99.8

----------
experiment: inhibitors of Chlamydomonas gravitaxis, primary screen, whole organism, Chlamydomonas reinhardtii, WT vs cilia-less mutant, absorbance, 96-well (AID 463189); conditions: OD600 absorbance, 2 days, at 10 µM, stronger effect = higher value;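 further: 0% = wild type cc124 cells in DMSO and 100% = ciliumless bld1 mutant cells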
inhibition overview
Write the number in % without appending the unit.

Examples with answers:
{"Molecule": "COc1ccc(C2=CC(c3ccc(C)cc3)n3nnnc3N2)cc1 (centres undefined)", "Value Unit": "%", "Experimental Value": -5.34}
{"Molecule": "COc1cc(C2C(C(=O)c3sc(C)nc3C)=C(O)C(=O)N2CCN(C)C)cc(OC)c1OC (centres undefined)", "Value Unit": "%", "Experimental Value": -3.66}
{"Molecule": "CCOC(=O)C1CCN(c2nc3ccccc3nc2C(C#N)C(=O)OC(C)COC)CC1 (centres undefined)", "Value Unit": "%", "Experimental Value": 6.91}
{"Molecule": "CCCCn1c(=O)n(C)c(=O)c2c3c(sc21)COC(C)(C)C3", "Value Unit": "%", "Experimental Value": 43.8}
{"Molecule": "CCOC(=O)N1CCN(c2ncnc3c2cnn3-c2ccc(OC)cc2)CC1", "Value Unit": "%", "Experimental Value": 0.263}
{"Molecule": "Cc1ccc2cc(CNC(C)(C)C)c(=O)[nH]c2c1", "Value Unit": "%", "Experimental Value": 2.56}
{"Molecule": "COC(=O)/C(C#N)=C1/SC=C(C)N1c1ccccc1", "Value Unit": "%", "Experimental Value": -8.28}
{"Molecule": "COc1ccccc1C1/C(=C(/O)c2ccc(C)cc2)C(=O)C(=O)N1CCN1CCOCC1 (centres undefined)", "Value Unit": "%", "Experimental Value": 0.641}

Challenge: So what's the measured inhibition for this one? CC(O)(C#CCN1CCOCC1)c1ccccc1 (centres undefined)
Response given: 17.4

Challenge: Now consider COc1ccc(C2/C(=C(\O)c3ccc4c(c3)OCCO4)C(=O)C(=O)N2CCCN(C)C)cc1 (centres undefined) .
Response given: -13.1

----------
NADPH fluorescence slope overview
target: Voltage-gated potassium channel subunit beta-2 (Rattus norvegicus) (UniProt P62483); assay: KvBeta positive modulators, primary screen, biochemical, NADPH fluorescence (AID 623); details: Recombinant KvBeta, NADPH fluorescence decrease slope, 10 min; at 10 µM; stronger effect = lower value;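 further: fluorescence intensity change per second fitted from 20 to 320 s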
Sequence (P62483 whole entry, looked up): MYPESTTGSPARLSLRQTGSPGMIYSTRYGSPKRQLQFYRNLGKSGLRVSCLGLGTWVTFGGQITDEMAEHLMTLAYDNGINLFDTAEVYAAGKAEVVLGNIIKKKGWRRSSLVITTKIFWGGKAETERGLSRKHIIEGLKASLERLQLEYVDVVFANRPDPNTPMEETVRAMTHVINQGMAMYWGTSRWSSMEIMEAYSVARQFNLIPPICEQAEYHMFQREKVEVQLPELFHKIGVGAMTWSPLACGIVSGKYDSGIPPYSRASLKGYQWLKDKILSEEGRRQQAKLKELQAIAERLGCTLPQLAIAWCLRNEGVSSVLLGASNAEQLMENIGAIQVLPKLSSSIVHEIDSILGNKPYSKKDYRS
Activity calls are given as the source filed them.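 How the source made its calls: active means NADPH fluorescence slope more negative than the mean of all samples by about 3 SD, 99.7% confidence; inactive means the rest.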

Examples with answers:
{"Compound": "CCCCSc1cc(C)nc2ncnn12", "Experimental Value": "3.1e-05 (inactive)"}
{"Compound": "Cn1c(Cn2cnc(Cl)c2Cl)nc2ccccc21", "Experimental Value": "-8.5e-05 (inactive)"}
{"Compound": "CCCn1c(SCC(N)=O)nc2c(c1=O)C1(CCCC1)Cc1ccccc1-2", "Experimental Value": "-5.2e-05 (inactive)"}

Challenge: So what's the measured NADPH fluorescence slope for this one? O=C(Nc1ccccc1-c1ccccc1)NC1CCN(C(=O)N2CCOCC2)CC1
Response given: -4.4e-05 (inactive)

Challenge: Now consider COC(=O)C1(C)NC(c2cccs2)C2C(=O)N(c3ccccc3F)C(=O)C21 (stereo unspecified) .
Response given: 2.7e-06 (inactive)

Challenge: Now consider CCCOc1ccccc1C(=O)NCCCC(=O)O .
Response given: -6.8e-05 (inactive)

----------
test: inhibitors of Sendai virus-induced IRF3 signaling, primary screen, TLR/RLR signaling modifier project, cell-based, Sendai virus stimulus, luciferase, 10K MLSCN set (AID 602276); conditions: HEK293 RL24 IRF3 luciferase reporter, at 10 µM, stronger effect = higher value;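 further: firefly luciferase from ISG56 promoter only with Renilla not read in this screen; 0% = Sendai virus plus DMSO and 100% = medium plus DMSO without virus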
Test Readout: inhibition (%)
Write the number in % without appending the unit.

{"Compound": "FC(F)(F)c1cccc(N2CCN(Cc3cccnc3)CC2)c1", "Value Unit": "%", "inhibition": 17.4}
{"Compound": "CN(C1CCCCC1)S(=O)(=O)c1ccc(S(=O)(=O)N2CCN(CCC#N)CC2)cc1", "Value Unit": "%", "inhibition": 3.23}
{"Compound": "CN(C(=O)COc1cc(=O)n(C)c2ccccc12)c1ccc(Br)cc1", "Value Unit": "%", "inhibition": 6.78}
{"Compound": "Cc1ccc(-n2ncc3c(N4CCCC(C)C4)ncnc32)c(C)c1 (stereo not given)", "Value Unit": "%", "inhibition": -57.7}

With those in mind, consider the next compound.
Challenge: So what's the measured inhibition for this one? Cc1ccccc1Cc1c(C)nc2c(C(=O)N3CCN(Cc4ccc5c(c4)OCO5)CC3)cnn2c1C
Response given: 10.8

----------
assay: DUSP6 inhibitors restoring Erk phosphorylation by chemical complementation, primary imaging in DUSP6-transfected HeLa (AID 609); conditions: HeLa MKP-3 transfected, phospho-Erk imaging KS statistic; measured here: nuclear c-Myc green intensity z-score; at 10 µM; cells stimulated with TPA for 15 min
Kindly return true (1) if reported z-score is no lower than 0.2; return false (0) if it is lower.

Some solved entries appear below for comparison.
{"Compound": "COCCOC(=O)c1c(C)oc2ccc(OC(=O)COc3c(F)c(F)c(F)c(F)c3F)cc12", "Qualitative Label": "false (0)"}
{"Compound": "C=CCOc1nc2c(c(=O)n(Cc3ccc(Cl)cc3)c(=O)n2C)n1C", "Qualitative Label": "true (1)"}
{"Compound": "CCN(CC)Cc1cc(C(C)=O)ccc1OCC(C)C", "Qualitative Label": "true (1)"}
{"Compound": "COc1ccccc1C1CC(c2ccc(Cl)cc2)Nc2nc(N)nn21 (configuration not stated)", "Qualitative Label": "false (0)"}
{"Compound": "CCCCC(CCC(=O)Nc1ccc(C(=O)OCC)cc1)C(=O)O (configuration not stated)", "Qualitative Label": "false (0)"}

Challenge: Reported z-score reaches at least 0.2 for CCOC(=O)CSc1nnc2n(Cc3ccccc3)c(=O)c3c4c(sc3n12)CCC4 ?
Response given: false (0)

----------
assay: DUSP6 inhibitors restoring Erk phosphorylation by chemical complementation, primary imaging in DUSP6-transfected HeLa (AID 609); details: HeLa MKP-3 transfected, phospho-Erk imaging KS statistic; measured here: nuclear pErk red intensity z-score; at 10 µM; stronger effect = higher value; cells stimulated with TPA for 15 min
Kindly return condition met if reported z-score is no lower than -0.4; return condition not met if it is lower.

Some solved entries appear below for comparison.
{"Compound": "c1ccc2c(c1)CCOC2CNCCCN1CCCCC1 (stereo unspecified)", "Qualitative Label": "condition met"}
{"Compound": "COc1ccc2[nH]cc(C(=O)CN(C)CCc3ccc(OC)c(OC)c3)c2c1", "Qualitative Label": "condition met"}
{"Compound": "NC(=O)C1CCN(CCC(=O)Nc2ccc(Br)cc2)CC1", "Qualitative Label": "condition met"}
{"Compound": "C=CCN(C)CCCNC(=O)/C=N/O", "Qualitative Label": "condition not met"}
{"Compound": "O=C(NCCc1ccccc1)/C(=N\\O)c1ccccc1", "Qualitative Label": "condition met"}

Challenge: Reported z-score reaches at least -0.4 for COC(=O)CSc1nc(-c2cccs2)ccc1C#N ?
Response given: condition not met

Challenge: Now consider Cc1nc2c(o1)CCc1ccccc1C2N1CCN(C)CC1 (stereo unspecified) .
Response given: condition met

Challenge: Now consider Cc1cc(=O)n(CCC(=O)O)c2ccccc12 .
Response given: condition not met

Challenge: Now consider CN(C)CCCNCCCCNC(=O)/C=N/O .
Response given: condition met

Challenge: Now consider Cn1c(=O)n(CC(=O)Nc2ccccc2)c2ccccc21 .
Response given: condition not met

Challenge: Now consider Cc1cc(C)n(S(=O)(=O)/C=C/c2ccccc2)n1 .
Response given: condition met

Challenge: Now consider COc1cc(C(=O)Nc2ccc(O)cc2C(=O)O)ccc1OC(C)=O .
Response given: condition not met

Challenge: Now consider C=CCOc1ccc(C2/C(=C(\O)c3ccc(F)cc3)C(=O)C(=O)N2CCCN(C)C)cc1 (stereo unspecified) .
Response given: condition met

Challenge: Now consider CN1CCc2c(C#N)c(N3CCCCC3)nc(NCc3ccccc3)c2C1 .
Response given: condition met

Challenge: Now consider COc1ccc(C2C(C(C)=O)=C(O)C(=O)N2c2nccs2)cc1OC (stereo unspecified) .
Response given: condition not met

Challenge: Now consider CCn1c(SCC(=O)NC2CCCCC2C)nnc1-c1ccc(OC)cc1 (stereo unspecified) .
Response given: condition met

Challenge: Now consider COc1cccc(C(=O)Nc2ccc(-c3nnc(-c4ccco4)o3)cc2)c1 .
Response given: condition not met

Entry source: PubChem BioAssay
